# photoluminescence quantum yield annotations
# Protocol description: photoluminescence quantum yield (fraction); solvent given as SMILES
# Condition details: in CC#N
Measurement kind: photoluminescence quantum yield

Compound	Measurement kind	Quantitative readout
CC(O)CC1=N/C(=C\c2cccc(N(C)C)c2)C(=O)N1C (stereo unspecified)	photoluminescence quantum yield	0.03
CC1=N/C(=C\c2ccc(C#N)c(N(C)C)c2)C(=O)N1C	photoluminescence quantum yield	0.02
O=[N+]([O-])c1ccc(F)cc1C1CC(c2cccc3ccccc23)=NN1c1ccccc1 (stereo unspecified)	photoluminescence quantum yield	0.2
COc1cccc2cc(-c3ccc([N+](=O)[O-])cc3)c(=N)oc12	photoluminescence quantum yield	0.0016
COc1ccc(-n2nc(C#N)c(N3CCCCCC3)n2)cc1	photoluminescence quantum yield	0.98
CCOC(=O)c1c2c3c(cccc3c3cc4c(cc13)[Si](C)(C)O[Si]4(C)C)N(C)C2=O	photoluminescence quantum yield	0.51
Cc1ccc2sc3cc(CCC(=O)O)ccc3c(=O)c2c1	photoluminescence quantum yield	0.0041
CNc1ncc2nc(C#N)n(Cc3ccccc3)c2n1	photoluminescence quantum yield	0.58
CN(C)CCN(Cc1c2ccccc2cc2ccccc12)c1ccc([N+](=O)[O-])cc1	photoluminescence quantum yield	0.0143
COc1ccccc1-c1nc2c([nH]1)C1=CC(=O)S[C@]1(C)[C@@]1(C)SC(=O)C=C21	photoluminescence quantum yield	0.11
CC1=[N+]2C(=C(c3ccccc3)c3ccc(C)n3[B-]2(F)F)C=C1	photoluminescence quantum yield	0.17
Cc1ccc(/C=C/c2ccccc2-[n+]2noc([O-])c2-c2ccccc2)cc1	photoluminescence quantum yield	0.0048
c1ccc2nc3c(nc2c1)[nH]c1ccccc13	photoluminescence quantum yield	0.05
N#Cc1nc2c(nc1C#N)C1c3ccc(N(c4ccccc4)c4ccccc4)cc3C2c2ccc(N(c3ccccc3)c3ccccc3)cc21	photoluminescence quantum yield	0.001
CCN(CC)c1ccc(/C=N/CC/N=C/c2ccc(N(CC)CC)cc2O)c(O)c1	photoluminescence quantum yield	0.13
C[n+]1ccc(-c2cc[n+](C)cc2)cc1	photoluminescence quantum yield	0.02
O=C1C(=c2c(=O)c3c4ccccc4cc4cc5ccccc5c2c43)C(=O)c2ccccc21	photoluminescence quantum yield	0.09
CN(C)c1ccc(C2=Nc3sc4ccccc4[n+]3[B-](F)(F)O2)cc1	photoluminescence quantum yield	0.17
CCOC(=O)CN(CC(=O)OCC)c1ccc(-c2cc(-c3ccncc3)nc(-c3ccncc3)c2)cc1	photoluminescence quantum yield	0.3
CC1=N/C(=C\c2ccc(N(C)C)cc2)C(=O)N1C	photoluminescence quantum yield	0.0003
C[Si](C)(c1c2ccccc2cc2ccccc12)[Si](C)(C)c1c2ccccc2cc2ccccc12	photoluminescence quantum yield	0.07

---

# Protocol description: photoluminescence quantum yield (fraction); solvent given as SMILES
# Condition details: in CCCCCCC
Threshold 0.09: photoluminescence quantum yield strictly smaller gives condition met, otherwise condition not met.

Compound smiles	Class name
c1ccc2cc3c(cc2c1)-c1cccc2c1c-3cc1ccccc12	condition not met
CC(=O)n1cc(/C=C/c2ccc([N+](=O)[O-])cc2)c2ccccc21	condition met
C(/C=C/c1cc2c3c(c1)CCCN3CCC2)=C\c1ccncc1	condition met
CN(C)c1ccc2nc(/C=C/c3ccccc3)c(=O)oc2c1	condition not met
Cc1ccccc1/C(C#N)=C/c1ccc(N(C)C)cc1	condition met
CN(C)c1ccc(/C=C/c2nc3ccc(N(C)C)cc3oc2=O)cc1	condition not met
c1ccc2c3c(ccc2c1)-c1cccc2c1c-3cc1ccccc12	condition not met
c1ccc2c3c(ccc2c1)-c1cc2ccccc2c2cccc-3c12	condition not met
c1ccc2nc3c(nc2c1)[nH]c1ccccc13	condition met

---

# Protocol description: photoluminescence quantum yield (fraction); solvent given as SMILES
# Condition details: in CCO
# photoluminescence quantum yield annotations
Measurement kind: photoluminescence quantum yield

Compound	Measurement kind	Quantitative readout
Cc1c(COC(=O)Cc2ccccc2)n2c(OCC(=O)Cc3ccccc3)c(C)c(=O)n2c1=O	photoluminescence quantum yield	0.836
Oc1cccc(O)c1-c1c2ccc(=[N+]3CCCCC3)cc-2oc2cc(N3CCCCC3)ccc12	photoluminescence quantum yield	0.26
CN(C)CCN(Cc1c2ccccc2cc2ccccc12)c1ccc([N+](=O)[O-])cc1[N+](=O)[O-]	photoluminescence quantum yield	0.0087
CC(C)(C)Nc1cc2oc3cc(NC(C)(C)C)c(F)cc3c(=O)c2cc1F	photoluminescence quantum yield	0.31
CN1/C(=C/C=C(/C=C/c2sc3ccccc3[n+]2C)c2cc(F)cc(F)c2)Sc2ccccc21	photoluminescence quantum yield	0.1
CN1c2cc3nc4cc(F)c(F)cc4nc3cc2N(C)C1(C)C	photoluminescence quantum yield	0.8
CC1=CC(=[N+]2CCC2)C=C2C1=Nc1c(C)cc(N3CCC3)cc1[Si]2(C)C	photoluminescence quantum yield	0.11
Nc1cccc2c1C(=O)NC2=O	photoluminescence quantum yield	0.74
COc1cc2c(cc1/C=C/C(=C(C#N)C#N)c1ccccc1)c1ccccc1n2C	photoluminescence quantum yield	0.012
CNC1=C2C=CC=[N+]2[B-](F)(F)n2cccc21	photoluminescence quantum yield	0.16
O=c1ccc2cc3c(cc2o1)OCC3	photoluminescence quantum yield	0.23
COc1ccc(-c2cc3c(o2)=CC2=C(C(F)(F)F)c4cc5oc(-c6ccc(OC)cc6)cc5n4[B-](F)(F)[N+]=32)cc1	photoluminescence quantum yield	0.37
O=CC1=C(c2ccc(-c3cccs3)s2)CC1	photoluminescence quantum yield	0.32
Cc1c(COC(=O)c2ccccc2)n2c(OCC(=O)c3ccccc3)c(C)c(=O)n2c1=O	photoluminescence quantum yield	0.839
CN(C)c1cccc2c1-c1ccccc1C2=O	photoluminescence quantum yield	0.00027
Clc1ncc(-c2c3ccccc3c(-c3cnc(Cl)nc3)c3ccccc23)cn1	photoluminescence quantum yield	0.22
O=CC1=C(c2ccc(-c3cccs3)s2)CCC1	photoluminescence quantum yield	0.02
CN(C)CCN(Cc1c2ccccc2cc2ccccc12)c1ccc([N+](=O)[O-])cc1	photoluminescence quantum yield	0.023
Cc1cc(=O)oc2c1cc(Br)c1occ(C)c12	photoluminescence quantum yield	0.004
COC(=O)C(Cc1ccc2oc(-c3ccc(N(C)c4ccccc4)cc3)nc2c1)NC(=O)OC(C)(C)C (stereo unspecified)	photoluminescence quantum yield	0.07
CN1/C(=C/C=C(/C=C/C2=[N+](C)c3ccccc3C2(C)C)c2ccccc2)C(C)(C)c2ccccc21	photoluminescence quantum yield	0.11

---

# Protocol description: photoluminescence quantum yield (fraction); solvent given as SMILES
# Condition details: in ClCCl

Compound smiles	photoluminescence quantum yield
F[B-]1(F)N2C=CN=CC2=[N+]2[N+]1=Cc1c(-c3ccccc3)cc(-c3cccs3)n1[B-]2(F)F	0.45
CC1=C(C2=C(C)C(C)=[N+]3C2=Cc2cc(C)c(C)n2[B-]3(F)F)C2=Cc3cc(C)c(C)n3[B-](F)(F)[N+]2=C1C	0.05
COc1cccc(C2=C(c3ccc(C(C)(C)C)cc3)C(c3ccc(C(C)(C)C)cc3)=[N+]3C2=C(c2ccccc2)c2c(-c4cccc(OC)c4)c(-c4ccc(C(C)(C)C)cc4)c(-c4ccc(C(C)(C)C)cc4)n2[B-]3(F)F)c1	0.58
c1ccc2c(c1)ccc1ccc3c(c12)-c1c(ccc2ccc4ccccc4c12)C3	0.39

---

# Protocol description: photoluminescence quantum yield (fraction); solvent given as SMILES
# Condition details: in C1CCOC1
Threshold 0.06: photoluminescence quantum yield strictly smaller gives 1, otherwise 0.

Compound smiles	Class name
N#Cc1cc2ccc(O)cc2oc1=N	1
CN(C)c1ccc(/C=C2\CC/C(=C\c3ccc(C#N)cc3)C2=O)cc1	1
CCCCCCCCN1c2ccc(C#Cc3ccc(C(F)(F)F)cc3)cc2Sc2cc(C=O)ccc21	0
CN(C)c1ccc(C2=Cc3c4ccccc4c4ccccc4[n+]3[B-](F)(F)O2)cc1	0
COc1ccc(C(=Cc2ccc(/C=C(\C#N)c3ccc([N+](=O)[O-])cc3)cc2)c2ccc(OC)cc2)cc1	1
Cn1cc(/C=C/C(=O)c2ccccc2)c2ccccc21	0
CCCCCCOc1ccc(/C=C/c2ccc(N(c3ccc(/C=C/c4ccc(OCCCCCC)cc4)cc3)c3ccc(-c4nc5ccccc5nc4-c4ccc(N(c5ccc(/C=C/c6ccc(OCCCCCC)cc6)cc5)c5ccc(/C=C/c6ccc(OCCCCCC)cc6)cc5)cc4)cc3)cc2)cc1	0

---

# Protocol description: photoluminescence quantum yield (fraction); solvent given as SMILES
# Condition details: in ClC(Cl)Cl
Label Met when photoluminescence quantum yield is at or above 0.4; anything below gets Not met.

Compound	Class name
Cc1ccc(S(=O)(=O)/N=c2\oc3cccc4c5c(-c6ccccc6)oc6cccc(c(c2-c2ccccc2)c34)c65)cc1	Met
O=C1c2ccccc2-c2ccc(N3CCOCC3)c3cccc1c23	Met
CCOC(=O)/C(C)=C/C1=C(c2ccc(C)cc2)C2=Nc3c(-c4ccc(C)cc4)c(Br)c(-c4ccc(C)cc4)n3[B-](F)(F)[N+]2=C1c1ccc(C)cc1	Not met
CCCCCCCCN1c2ccccc2Sc2cc(/C=C/c3ccc(N(c4ccc(/C=C/c5ccc6c(c5)Sc5ccccc5N6CCCCCCCC)cc4)c4ccc(/C=C/c5ccc(/C=C/c6ccc(N(c7ccc(/C=C/c8ccc9c(c8)Sc8ccccc8N9CCCCCCCC)cc7)c7ccc(/C=C/c8ccc9c(c8)Sc8ccccc8N9CCCCCCCC)cc7)cc6)c6nsnc56)cc4)cc3)ccc21	Not met
CCCCC(CC)CN1C(=O)c2cccc3c(C#Cc4ccc(N(c5ccccc5)c5ccc(C#Cc6ccc7c8c(cccc68)C(=O)N(CC(CC)CCCC)C7=O)cc5)cc4)ccc(c23)C1=O (stereo unspecified)	Met
CN(C)c1ccc(/C=C/c2nc3ccc(N(C)C)cc3oc2=O)cc1	Met
CN(C)CCN(Cc1c2ccccc2cc2ccccc12)c1ccc([N+](=O)[O-])cc1	Not met
CCOC(CN1C(=O)C2=C(c3ccsc3)N(CC(OCC)OCC)C(=O)C2=C1c1ccsc1)OCC	Met
F[B-]1(F)OC(c2ccc(Br)cc2)=Cc2ccc3ccccc3[n+]21	Met
c1cc2ccc3cccc4c(-c5cc(-c6nccs6)nc(-c6nccs6)c5)cc(c1)c2c34	Met
CCOc1ccc2c(-c3nc(-c4ccccc4F)no3)cc(=O)oc2c1	Not met
Cc1ccc(/C2=c3\cc/c(o3)=C(\c3ccc(C)cc3)c3ccc([nH]3)-c3ccc4n3[B-](F)(F)[N+]3=C(C=CC3=C4c3ccco3)c3ccc2[nH]3)cc1	Not met
Cc1ccc(C2=C3C=CC(C#Cc4ccccc4)=[N+]3[B-](F)(F)n3c(Cl)ccc32)cc1	Met
CC(C)(C)c1ccc2c(c1)c1cc(C(C)(C)C)ccc1n2-c1ccc(C#Cc2ccc(C#Cc3ccc(-n4c5ccc(C(C)(C)C)cc5c5cc(C(C)(C)C)ccc54)cc3)cc2)cc1	Met
CN(C)c1ccc(-c2cc(-c3ccc(C#N)cc3)nc(-c3ccccc3)n2)cc1	Met
COc1cc2c(cc1/C=C(\C#N)c1nc3ccccc3s1)c1ccccc1n2C	Not met
COC(=O)c1ccc(C2=C3C=CC(C)=[N+]3[B-](F)(F)n3c(C)ccc32)cc1	Not met
F[B-]1(F)n2c(ccc2-c2nc3ccccc3s2)C(c2ccccc2)=C2C=CC(c3nc4ccccc4s3)=[N+]21	Met
CC1(C)CC(NCc2ccc3ccc4cccc5ccc2c3c45)CC(C)(C)N1[O]	Not met
O=C1Cc2ccc(cc2)CC(=O)Cc2ccc(c3nsnc23)C1	Met
COc1ccc(-c2cc3c(o2)=CC2=C(C(F)(F)F)c4cc5oc(-c6ccc(OC)cc6)cc5n4[B-](F)(F)[N+]=32)cc1	Met
CC1=CC(C)=[N+]2C1=C(c1ccc(I)cc1)c1c(C)cc(C)n1[B-]21Oc2ccc3ccccc3c2-c2c(ccc3ccccc23)O1	Not met
c1ccc(N2c3ccc4ccccc4c3-c3c4ccccc4nc[n+]3[B-]2(c2ccccc2)c2ccccc2)cc1	Not met
CCCCCCCCC1(CCCCCCCC)c2cc3c(cc2-c2sc(-c4ccc(/C=C5\SC(=S)N(CC)C5=O)c5nsnc45)cc21)C(CCCCCCCC)(CCCCCCCC)c1cc(-c2ccc(/C=C4\SC(=S)N(CC)C4=O)c4nsnc24)sc1-3	Not met
Cc1cc(C(F)(F)F)nc2c1ccc1nc(-c3ccc(Cl)cc3)cn12	Met
COc1ccc(C2=CC(c3ccccc3)=[N+]3C2=Nc2c(-c4ccc(OC)cc4)cc(-c4ccccc4)n2[B-]3(F)F)cc1	Not met
CCCCc1ccc(-n2c3c4ccc(C(F)(F)F)cc4nc(-c4ccc(C#N)cc4)c3c3c2c2c(-c4ccc(C#N)cc4)nc4cc(C(F)(F)F)ccc4c2n3-c2ccc(CCCC)cc2)cc1	Not met
Cc1ccccc1CN(Cc1ccccc1C)c1nc(C#N)c(N(Cc2ccccc2C)Cc2ccccc2C)nc1C#N	Met
O=C1C=CC2=Cc3ccccc3B(O)N12	Met
COc1cc2c(cc1/C=C/C(=C(C#N)C#N)c1ccccc1)c1ccccc1n2C	Not met
